- Tested on: HIV-1 WT strain (IIIB)
- ASSAY INFO: Anti-HIV activity against WT HIV-1
- CONDITION NOTES: read-out: EC50 IIIB; WT HIV-1 IIIB, MT-4 cells
RECORDED METRIC: pEC50
pEC50 here is simply -log10 of the concentration when that concentration is written in mol/L.

Query: Param item = Cc1cc(C)cc(S(=O)(=O)c2c(C(=O)NCCNS(=O)(=O)C3CC3)[nH]c3ccc(Cl)cc23)c1 ; retrieve measured pEC50.
Reply: 8.39

* * *

- ASSAY INFO: In vivo pharmacokinetics study in rats
- CONDITION NOTES: male, Sprague-Dawley, rat, plasma, po, 10 mg/kg
RECORDED METRIC: AUC(0-inf)
Please answer using the number first and the unit second.

Query: // lookup AUC(0-inf) for Cc1cc(C)cc(S(=O)(=O)c2c(C(=O)NCCCCNS(=O)(=O)c3cccnc3)[nH]c3ccc(Cl)cc23)c1
Reply: 203 ng·h/mL

# credit: paper PMC10326263
